The reader will find log10 of IC50 measurements below, all made with Estrogen receptor (Homo sapiens, UniProt Q92731+P03372).
Transform log10 | Measure IC50 | Unit nM

[[record]]
molecule = "CCc1c(-c2ccc(O)cc2)c2ccc3cc(O)cc1n32"
recorded_endpoint = "log10 of IC50"
endpoint_result = -0.05

[[record]]
molecule = "Oc1ccc(C2=c3ccc4n3C3C(=CC=4)CCCCC23)cc1 (stereo unspecified)"
recorded_endpoint = "log10 of IC50"
endpoint_result = 1.40

[[record]]
molecule = "CC(C)c1c(-c2ccc(O)cc2)c2ccc3cccc1n32"
recorded_endpoint = "log10 of IC50"
endpoint_result = 0.90

[[record]]
molecule = "Oc1ccc(C2=c3ccc4n3C3C(=CC=4)CCCC23)cc1 (stereo unspecified)"
recorded_endpoint = "log10 of IC50"
endpoint_result = 1.48

[[record]]
molecule = "CCc1c(-c2ccc(O)cc2)c2ccc3ccc(CO)c1n32"
recorded_endpoint = "log10 of IC50"
endpoint_result = 1.08

[[record]]
molecule = "CCc1c(-c2ccc(O)cc2)c2ccc3cccc1n32"
recorded_endpoint = "log10 of IC50"
endpoint_result = 0.98

[[record]]
molecule = "CCCCC1C(c2ccc(O)cc2)=c2ccc3n2C1C=CC=3 (stereo unspecified)"
recorded_endpoint = "log10 of IC50"
endpoint_result = 2.30

[[record]]
molecule = "CCCC(C)C1C(c2ccc(O)cc2)=c2ccc3n2C1C=CC=3 (stereo unspecified)"
recorded_endpoint = "log10 of IC50"
endpoint_result = 2.98

[[record]]
molecule = "Oc1ccc(C2=c3ccc4n3C(C=CC=4)C2CCc2ccccc2)cc1 (stereo unspecified)"
recorded_endpoint = "log10 of IC50"
endpoint_result = 2.26

[[record]]
molecule = "CCCc1c(-c2ccc(O)cc2)c2ccc3cccc1n32"
recorded_endpoint = "log10 of IC50"
endpoint_result = 0.70


For each of the molecules below, note its log10 of IC50.
1. CCc1c(-c2ccccc2)c2ccc3cc(O)cc1n32
2. CCc1c(-c2ccccc2)c2ccc3c(O)ccc1n32
3. CCc1c(-c2cccc(O)c2)c2ccc3cccc1n32
4. Oc1ccc(-c2cc3cccc4ccc2n43)cc1
5. Cc1c(-c2ccc(O)cc2)c2ccc3cccc1n32

# output
1. 3.11
2. 2.26
3. 2.57
4. 2.85
5. 1.45

# input Sample CCc1c(-c2ccc(O)cc2)c2ccc3c(O)ccc1n32 — what was its log10 of IC50?
# output -0.05
